Value type: Ki (nM)
Please reply with the bare figure in nM and do not write the unit itself.

The recorded Ki with Alpha-2A adrenergic receptor (Homo sapiens) for O=C1NCN(c2ccccc2)C12CCN(CC1COc3ccccc3O1)CC2 (stereo not given) was 9.54

# value of Ki, Alpha-2A adrenergic receptor (Homo sapiens), item COc1cccc(OC)c1OCCNCC1Oc2ccccc2OC1c1ccccc1 (stereo not given) = 2.18

The recorded Ki with Alpha-2A adrenergic receptor (Homo sapiens) for COc1ccccc1N1CCN(CCC2C(=O)c3ccccc3C(C)(C)C2=O)CC1 (stereo not given) was 219

Sample CC(C)=CCOc1ccc(Cl)c2c1CCN(C)CC2 , system: Alpha-2A adrenergic receptor (Homo sapiens). Its Ki is 39.8

For CN1C[C@H](Cn2ccnc2-c2ccccc2)C[C@@H]2c3cccc4[nH]c(Br)c(c34)C[C@H]21 on Alpha-2A adrenergic receptor (Homo sapiens), measured Ki was 0.93
